Here the recorded inhibition is given for each entry.
Molecular target: Platelet-activating factor acetylhydrolase IB subunit alpha1 (Homo sapiens)
Assay: PAFAH1B3 enzyme inhibitors, primary screen, biochemical, fluorescence polarization, human (AID 492972);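 also: 0% = enzyme with DMSO only and 100% = wells lacking PAFAH1B3 protein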
Details: recombinant PAFAH1B3, FP-rhodamine probe, at 3.39 µM, active compounds read high
In all, about 340,000 compounds went through this assay and about 930 (0.27%) were called active. The list comes from a sample in which actives are over-represented; it also holds close analogues and randomly drawn compounds.
Numeric answer only, unit % assumed.

Here's what some known entries look like.
CC(C)c1ccc(-c2nn[nH]n2)cc1 = 5.47
COc1cc2c(C(=O)N(C)c3cc(Cl)ccc3OC)cn(C)c(=O)c2cc1OC = 6.3
COc1ccc([N+](=O)[O-])cc1NCC(=O)c1ccc(C)cc1 = 8.91
Cc1ccc(C)c(S(=O)(=O)N2CCN(C(=O)Nc3ccccc3)CC2)c1 = 3.11

We next turn to a different molecule, shown below.
q: Look at this molecule and give its reported inhibition. `CCN1CCc2nc(NC(=O)c3cc(F)c(F)cc3Cl)sc2C1`
a: 1.2
